- Protocol description: Selectivity index, ratio of EC50 for mouse NIH/3T3 cells to EC50 for human A2780 cells
- Measurement parameters: NIH/3T3 cells versus A2780 cells
Assay metric: selectivity ratio
Numbers only.

COCO[C@@H]1C[C@]2(C)[C@H]3CC=C4[C@@H]5CC(C)(C)CC[C@]5(C(=O)NCc5ccccc5)CC[C@@]4(C)[C@]3(C)CC[C@H]2C(C)(C)[C@H]1O    5
CC(=O)O[C@@H]1C[C@]2(C)[C@H]3CC=C4[C@@H]5CC(C)(C)CC[C@]5(C(=O)NCc5ccccc5)CC[C@@]4(C)[C@]3(C)CC[C@H]2C(C)(C)[C@H]1OC(C)=O    70

# context switch: different molecule, same selectivity ratio
Input: Need selectivity ratio, item "COCCO[C@@H]1C[C@]2(C)[C@H]3CC=C4[C@@H]5CC(C)(C)CC[C@]5(C(=O)NCc5ccccc5)CC[C@@]4(C)[C@]3(C)CC[C@H]2C(C)(C)[C@H]1OCCOC"
Output: 5

Data credit: ChEMBL document CHEMBL4428035
